Test system: OVCAR-5 ovarian
run-description: NCI-60 one-dose screen, 48 h
details: 10 µM unless noted
About 83,000 compounds went through this panel and 20% of them were active in at least one assay; those are over-represented in the sample as a whole. Activity calls are given as the source filed them. How the source made its calls: active means growth percent below 10; inactive means the rest.
Outcome codes: YES (active), NO (inactive)

{"columns": ["compound", "class-name"],
 "data": [
  ["CC(=O)c1cc(C(=O)c2ccc3c(c2)Sc2ccccc2N3)n2ccccc12", "NO"],
  ["NNCCc1ccc(NC(=O)CCCc2ccc(/C=C/C(=O)NO)cc2)cc1", "NO"],
  ["C=C(C)[C@@H]1CC[C@]2(C(=O)OC)CC[C@]3(C)[C@H](CC[C@@H]4[C@@]5(C)C/C(=C/c6cccc(I)c6)C(=O)C(C)(C)[C@@H]5CC[C@]43C)[C@@H]12", "NO"],
  ["COc1cccc(-c2nc3sccn3c2-c2ccnc(NCCCNS(=O)(=O)c3c(Cl)cccc3Cl)c2)c1", "NO"],
  ["CCCCn1c(-c2ccc(C(=O)O/N=C(\\N)c3ccc4ccccc4c3)cc2)nc(-c2ccccc2)c1-c1ccccc1", "NO"],
  ["CC(C)(CCCN=C(N)Nc1ccc(Cl)cc1)c1ccc(F)cc1", "NO"],
  ["COc1cc(-c2ccc3c(c2)NC(=O)/C3=C\\c2ccc[nH]2)ccc1O", "NO"],
  ["Cn1cc(C(=O)c2nc(-c3c[nH]c4ccc(F)cc34)no2)c2cc(F)ccc21", "NO"],
  ["O=C(O)c1c(=O)cccc2ssc12", "YES"],
  ["COc1ccc(S(=O)(=O)N2CCN(C)CC2)cc1NC(=O)c1[nH]c(C)c2c1CCCCC2=O", "NO"],
  ["Cc1cc(NS(=O)(=O)c2ccc(-c3cnc(C4CC4)o3)cc2)ccc1Cl", "NO"],
  ["COc1cccc(NC(=O)c2sc3nc(C)c(C(C)=O)cc3c2N)c1", "NO"],
  ["COCCNc1ccc2c3c(cccc13)C(=O)N(CCN(C)C)C2=O", "NO"],
  ["O=[N+]([O-])c1ccc2c(c1)Cc1cc(F)ccc1-2", "NO"],
  ["COc1cc(/C=C/c2cc(/C=C/c3ccc(O)c(OC)c3)n(-c3c(C)cccc3C)c(=O)n2)ccc1O", "YES"],
  ["COc1cccc2c1C(=O)c1c(O)c3c(c(O)c1C2=O)C[C@](O)(C(=O)CO)C[C@H]3O[C@@H]1C[C@@H](NC(=O)CCCN(C)C2(c3ccc(F)cc3)CC3CCC2C3)[C@H](O)[C@@H](C)O1 (some centres undefined)", "YES"],
  ["COc1cc2nc(N3CCCC3)nc(NCc3ccccc3)c2cc1OC", "NO"],
  ["C#CCOc1ccc2ncnc(NCc3cccc(NC(=O)CCl)c3)c2c1", "NO"],
  ["O=C(Cn1cccc(Nc2ccccc2)c1=O)Nc1ccccc1", "NO"]
]}

====

Test system: MCF7 breast
run-description: NCI-60 one-dose screen, 48 h (100 = growth as untreated, 0 = no growth, -100 = all killed)
details: 10 µM unless noted
About 83,000 compounds went through this panel and 20% of them were active in at least one assay; those are over-represented in the sample as a whole.
Quick reference for growth among some compounds

{"columns": ["compound", "growth, %"],
 "data": [
  ["CC(C)C[C@@H](NC(=O)[C@@H](Cc1ccccc1)NC(=O)c1cnccn1)B1Oc2ccc(C[C@H](NC(=O)[C@H](Cc3ccc4c(c3)OB([C@@H](CC(C)C)NC(=O)[C@@H](Cc3ccccc3)NC(=O)c3cnccn3)O4)NC(=O)[C@@H](N)CC3CCC4OB([C@@H](CC(C)C)NC(=O)[C@@H](CC5CCCCC5)NC(=O)C5CNCCN5)OC4C3)C(=O)NCCCC[C@@H]3NC(=O)[C@@H](Cc4ccccc4)NC(=O)[C@H](CC(=O)O)NC(=O)CNC(=O)[C@H](CCCNC(=N)N)NC3=O)cc2O1 (stereo partly specified)", -43.9],
  ["O=C1OCC2=C1C(c1ccncc1)c1cc3c(cc1N2CCO)OCO3 (stereo unspecified)", 96.3],
  ["COc1ccc(-n2nc(C)c3c(Nc4ccc(NC(=O)Nc5c(Cl)cccc5Cl)cc4)ncnc32)cc1", 58.5],
  ["CC(C)(O)c1cn(CCCCN2C(=O)C(=O)c3ccccc32)nn1", 93.9],
  ["COc1cc2c(cc1-c1c(C)noc1C)ncc1nc(C3CCCCC3)n([C@H](C)COC(F)F)c12", 18.3],
  ["CCN1CCN(c2nc(NCCNc3ccnc4cc(Cl)ccc34)c3ccccc3n2)CC1", 18.6],
  ["COc1ccc(Nc2cc(C)nc(N3CCN(c4ccnc5cc(Cl)ccc45)CC3)n2)cc1", 9.32],
  ["CCc1nc(N)nc(N)c1C#CC(C)c1cc(-c2ccnc(C)c2)c2oc(C)nc2c1 (stereo unspecified)", 8.57],
  ["O=[N+]([O-])c1cnc(N2CCN(CC3CC3)CC2)nc1N1CCN(CC2CC2)CC1", 96.4],
  ["O=C(Oc1cccnc1)c1ccsc1Nc1ccnc(C(F)(F)F)c1", 58.2],
  ["O=c1ccccc(-c2ccc(Br)cc2)c1O", 14.3],
  ["O=Nc1c(O)c(Cl)cc2ccccc12", 49.6],
  ["COc1cccc(-c2nn(C(C)(C)C)cc2-c2ccnc(NCCCNS(=O)(=O)c3ccc(C)cc3)c2)c1", 102],
  ["O=C1NC(=O)C(c2ccc(Cl)cc2Cl)N1 (stereo unspecified)", 101],
  ["C#CC(F)(F)[C@]1(O)CC[C@H]2[C@@H]3CCC4=CC(=O)CCC4=C3[C@@H](c3ccc(C4CC4)cc3)C[C@@]21C", 36.9],
  ["CC1SC(c2ccc(N(C)C)cc2)N(NC(=O)C(O)(c2ccccc2)c2ccccc2)C1=O (stereo unspecified)", 118],
  ["O=C(/C=C/c1cccc(Cl)c1)c1ccc(O)c(CN2CCN(c3cc4c(cc3F)c(=O)c(C(=O)O)cn4C3CC3)CC2)c1", 28.3],
  ["Fc1ccc2[nH]cc(SSc3c[nH]c4ccc(F)cc34)c2c1", 32.2],
  ["Nc1ccn(-c2ccc(Br)cc2)c(=O)n1", 108],
  ["Cn1cc(-c2nonc2-c2cn(C)c3ccc(F)cc23)c2ccccc21", 21.3],
  ["O=C(N/N=C/c1ccccc1O)c1ccccc1Nc1ccnc(C(F)(F)F)c1", 8.24]
]}
